# assay comment: isobaric coefficient of expansion
# conditions used: 328.15 K; 15000 kPa; Liquid; Microcalorimeter
Quick reference for isobaric coefficient of expansion among some compounds
parameter measured: isobaric coefficient of expansion

> print(dat)
                                   compound        result
1  CCn1cc[n+](C)c1.F[B-](F)(F)F [1-ethyl-3-methylimidazolium tetrafluoroborate]  0.000573 1/K
2  CCCCCCCC[n+]1ccn(C)c1.F[B-](F)(F)F [1-methyl-3-octylimidazolium tetrafluoroborate]   0.00058 1/K
3  CCCC[n+]1cccc(C)c1.F[B-](F)(F)F [1-butyl-3-methylpyridinium tetrafluoroborate]  0.000568 1/K
4  CCCCCC[n+]1ccn(C)c1.O=S(=O)([N-]S(=O)(=O)C(F)(F)F)C(F)(F)F  0.000632 1/K
5  CCCCCCn1cc[n+](C)c1.F[B-](F)(F)F [1-hexyl-3-methylimidazolium tetrafluoroborate]   0.00058 1/K
6  CCn1cc[n+](C)c1.O=S(=O)([N-]S(=O)(=O)C(F)(F)F)C(F)(F)F  0.000628 1/K

====

# assay comment: isobaric coefficient of expansion
# conditions used: 278.15 K; 30000 kPa; Liquid; Microcalorimeter
parameter measured: isobaric coefficient of expansion

> print(dat)
                                   compound                 parameter.measured        result
1  CCCCCCCC[n+]1ccn(C)c1.F[B-](F)(F)F [1-methyl-3-octylimidazolium tetrafluoroborate]  isobaric coefficient of expansion  0.000584 1/K
2  CCn1cc[n+](C)c1.O=S(=O)([N-]S(=O)(=O)C(F)(F)F)C(F)(F)F  isobaric coefficient of expansion  0.000628 1/K
3  CCCCCCn1cc[n+](C)c1.F[B-](F)(F)F [1-hexyl-3-methylimidazolium tetrafluoroborate]  isobaric coefficient of expansion  0.000584 1/K
4  CCn1cc[n+](C)c1.F[B-](F)(F)F [1-ethyl-3-methylimidazolium tetrafluoroborate]  isobaric coefficient of expansion   0.00058 1/K
5  CCCC[n+]1cccc(C)c1.F[B-](F)(F)F [1-butyl-3-methylpyridinium tetrafluoroborate]  isobaric coefficient of expansion  0.000581 1/K
6  CCCCCC[n+]1ccn(C)c1.O=S(=O)([N-]S(=O)(=O)C(F)(F)F)C(F)(F)F  isobaric coefficient of expansion  0.000628 1/K

====

# assay comment: isobaric coefficient of expansion
# conditions used: 318.15 K; 50000 kPa; Liquid; Microcalorimeter
Quick reference for isobaric coefficient of expansion among some compounds
parameter measured: isobaric coefficient of expansion

> print(dat)
                                   compound        result
1  CCn1cc[n+](C)c1.F[B-](F)(F)F [1-ethyl-3-methylimidazolium tetrafluoroborate]  0.000532 1/K
2  CCCCCC[n+]1ccn(C)c1.O=S(=O)([N-]S(=O)(=O)C(F)(F)F)C(F)(F)F  0.000571 1/K
3  CCCCCCn1cc[n+](C)c1.F[B-](F)(F)F [1-hexyl-3-methylimidazolium tetrafluoroborate]  0.000532 1/K
4  CCCCCCCC[n+]1ccn(C)c1.F[B-](F)(F)F [1-methyl-3-octylimidazolium tetrafluoroborate]  0.000532 1/K
5  CCCC[n+]1cccc(C)c1.F[B-](F)(F)F [1-butyl-3-methylpyridinium tetrafluoroborate]  0.000535 1/K
6  CCn1cc[n+](C)c1.O=S(=O)([N-]S(=O)(=O)C(F)(F)F)C(F)(F)F  0.000576 1/K
